Kindly state pKi for each of the entries shown.
Target: Mu-type opioid receptor (Homo sapiens, UniProt P35372)
Sequence (P35372 whole entry): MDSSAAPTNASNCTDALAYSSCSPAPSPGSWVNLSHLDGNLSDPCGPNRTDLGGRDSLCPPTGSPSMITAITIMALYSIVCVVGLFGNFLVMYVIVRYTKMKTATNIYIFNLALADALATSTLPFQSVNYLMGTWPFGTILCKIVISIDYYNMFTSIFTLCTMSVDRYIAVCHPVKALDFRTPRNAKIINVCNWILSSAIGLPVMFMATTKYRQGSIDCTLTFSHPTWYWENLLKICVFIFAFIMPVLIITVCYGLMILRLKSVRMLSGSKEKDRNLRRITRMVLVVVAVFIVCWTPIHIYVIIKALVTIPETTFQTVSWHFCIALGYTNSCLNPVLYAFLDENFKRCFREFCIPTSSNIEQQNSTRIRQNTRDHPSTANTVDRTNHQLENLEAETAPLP
Assay: Displacement of [3H]DAMGO from human mu opioid receptor expressed in CHO cells
Assay type: cell-based
Reminder that pKi is minus the log10 of a molar concentration.

Task: Entry under review: COc1cc(OC)cc(C(=O)N[C@H]2CC[C@@]3(O)[C@H]4Cc5ccc(O)c6c5[C@@]3(CCN4CC3CC3)[C@H]2O6)c1 . Reported pKi?
Output: 9.72

Task: Continue with COc1cc(OC)cc(C(=O)N[C@@H]2CC[C@@]3(O)[C@H]4Cc5ccc(O)c6c5[C@@]3(CCN4CC3CC3)[C@H]2O6)c1
Output: 9.59

Task: Continue with O=C(C[C@@H]1O[C@H](CO)[C@@H](O)[C@H](O)[C@H]1O)N[C@@H]1CC[C@@]2(O)[C@H]3Cc4ccc(O)c5c4[C@@]2(CCN3CC2CC2)[C@H]1O5
Output: 9.19

Task: Continue with COC(=O)c1ccc(C(=O)N[C@@H]2CC[C@@]3(O)[C@H]4Cc5ccc(O)c6c5[C@@]3(CCN4CC3CC3)[C@H]2O6)cc1
Output: 9.68

Task: Continue with O=C(Cc1ccccc1)N[C@@H]1CC[C@@]2(O)[C@H]3Cc4ccc(O)c5c4[C@@]2(CCN3CC2CC2)[C@H]1O5
Output: 9.80

Task: Continue with O=C(Cc1cccs1)N[C@H]1CC[C@@]2(O)[C@H]3Cc4ccc(O)c5c4[C@@]2(CCN3CC2CC2)[C@H]1O5
Output: 9.42

Task: Continue with O=C(N[C@@H]1CC[C@@]2(O)[C@H]3Cc4ccc(O)c5c4[C@@]2(CCN3CC2CC2)[C@H]1O5)c1cccc(O)c1
Output: 9.89

Task: Continue with O=C(CCc1ccccc1)N[C@@H]1CC[C@@]2(O)[C@H]3Cc4ccc(O)c5c4[C@@]2(CCN3CC2CC2)[C@H]1O5
Output: 9.92

Task: Continue with O=C(O)c1ccc(C(=O)N[C@@H]2CC[C@@]3(O)[C@H]4Cc5ccc(O)c6c5[C@@]3(CCN4CC3CC3)[C@H]2O6)cc1
Output: 8.00

Task: Continue with O=C(N[C@@H]1CC[C@@]2(O)[C@H]3Cc4ccc(O)c5c4[C@@]2(CCN3CC2CC2)[C@H]1O5)c1ccccc1
Output: 9.74

Task: Continue with CN(C)c1cccc(C(=O)NC2CC[C@@]3(O)[C@H]4Cc5ccc(O)c6c5[C@@]3(CCN4CC3CC3)[C@H]2O6)c1 (stereo partly specified)
Output: 8.92

---

Kindly state half-life at 40 µM for each of the entries shown.
Experiment: Metabolic stability assessed as half life in mouse liver microsomes at 40 uM
Assay type: ADME, Microsome
Express your answer as a number followed by its unit.

Task: Entry under review: O=C(N[C@@H]1CC[C@@]2(O)[C@H]3Cc4ccc(O)c5c4[C@@]2(CCN3CC2CC2)[C@H]1O5)c1ccc(Cl)cc1 . Reported half-life at 40 µM?
Output: 255 min

Task: Continue with COc1cccc(C(=O)N[C@H]2CC[C@@]3(O)[C@H]4Cc5ccc(O)c6c5[C@@]3(CCN4CC3CC3)[C@H]2O6)c1
Output: 49 min

Task: Continue with C=C1CC[C@@]2(O)[C@H]3Cc4ccc(O)c5c4[C@@]2(CCN3CC2CC2)[C@H]1O5
Output: 20 min

---

Entries below carry reported log10(Ki) on Kappa-type opioid receptor (Homo sapiens, UniProt P41145).
Sequence (P41145 whole entry): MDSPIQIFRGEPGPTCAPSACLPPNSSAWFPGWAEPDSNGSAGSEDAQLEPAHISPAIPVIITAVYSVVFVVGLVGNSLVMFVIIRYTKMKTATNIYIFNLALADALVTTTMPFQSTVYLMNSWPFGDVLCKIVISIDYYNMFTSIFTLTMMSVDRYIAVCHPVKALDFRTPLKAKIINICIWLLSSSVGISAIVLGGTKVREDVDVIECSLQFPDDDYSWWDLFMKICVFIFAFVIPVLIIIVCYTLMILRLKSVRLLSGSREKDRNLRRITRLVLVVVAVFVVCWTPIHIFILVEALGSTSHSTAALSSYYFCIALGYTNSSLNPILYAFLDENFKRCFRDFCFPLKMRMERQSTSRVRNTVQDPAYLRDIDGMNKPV
Hello, just confirming the data are log10 of Ki with units of nM.

Task: Entry under review: O=C(Cc1cccs1)N[C@@H]1CC[C@@]2(O)[C@H]3Cc4ccc(O)c5c4[C@@]2(CCN3CC2CC2)[C@H]1O5 . Reported log10(Ki)?
Output: 0.08

Task: Continue with O=C(CCc1ccccc1)N[C@@H]1CC[C@@]2(O)[C@H]3Cc4ccc(O)c5c4[C@@]2(CCN3CC2CC2)[C@H]1O5
Output: -1.05

Task: Continue with O=C(C[C@@H]1O[C@H](CO)[C@@H](O)[C@H](O)[C@H]1O)N[C@H]1CC[C@@]2(O)[C@H]3Cc4ccc(O)c5c4[C@@]2(CCN3CC2CC2)[C@H]1O5
Output: 0.31

Task: Continue with O=C(/C=C/Cc1ccccc1)N[C@@H]1CC[C@@]2(O)[C@H]3Cc4ccc(O)c5c4[C@@]2(CCN3CC2CC2)[C@H]1O5
Output: -0.04

Task: Continue with O=C(N[C@@H]1CC[C@@]2(O)[C@H]3Cc4ccc(O)c5c4[C@@]2(CCN3CC2CC2)[C@H]1O5)c1cccc(O)c1
Output: -1.22

---

Entries below carry reported Ki on Kappa-type opioid receptor (Homo sapiens, UniProt P41145).
State the answer as a number, implicitly in pM.

Task: Entry under review: Nc1ccc(C(=O)N[C@@H]2CC[C@@]3(O)[C@H]4Cc5ccc(O)c6c5[C@@]3(CCN4CC3CC3)[C@H]2O6)cc1 . Reported Ki?
Output: 400

Task: Continue with O=C(N[C@@H]1CC[C@@]2(O)[C@H]3Cc4ccc(O)c5c4[C@@]2(CCN3CC2CC2)[C@H]1O5)c1ccccc1
Output: 160

Task: Continue with O=C(N[C@@H]1CC[C@@]2(O)[C@H]3Cc4ccc(O)c5c4[C@@]2(CCN3CC2CC2)[C@H]1O5)c1ccccn1
Output: 390

Task: Continue with COc1ccc(CC(=O)N[C@@H]2CC[C@@]3(O)[C@H]4Cc5ccc(O)c6c5[C@@]3(CCN4CC3CC3)[C@H]2O6)cc1
Output: 420

Task: Continue with O=C(C[C@@H]1O[C@H](COCc2ccccc2)[C@@H](OCc2ccccc2)[C@H](OCc2ccccc2)[C@H]1OCc1ccccc1)N[C@H]1CC[C@@]2(O)[C@H]3Cc4ccc(O)c5c4[C@@]2(CCN3CC2CC2)[C@H]1O5
Output: 510

Task: Continue with CC(C)(C)OC(=O)Nc1ccc(C(=O)N[C@@H]2CC[C@@]3(O)[C@H]4Cc5ccc(O)c6c5[C@@]3(CCN4CC3CC3)[C@H]2O6)cc1
Output: 790

---

Target: Delta-type opioid receptor (Homo sapiens, UniProt P41143)
Sequence (P41143 whole entry): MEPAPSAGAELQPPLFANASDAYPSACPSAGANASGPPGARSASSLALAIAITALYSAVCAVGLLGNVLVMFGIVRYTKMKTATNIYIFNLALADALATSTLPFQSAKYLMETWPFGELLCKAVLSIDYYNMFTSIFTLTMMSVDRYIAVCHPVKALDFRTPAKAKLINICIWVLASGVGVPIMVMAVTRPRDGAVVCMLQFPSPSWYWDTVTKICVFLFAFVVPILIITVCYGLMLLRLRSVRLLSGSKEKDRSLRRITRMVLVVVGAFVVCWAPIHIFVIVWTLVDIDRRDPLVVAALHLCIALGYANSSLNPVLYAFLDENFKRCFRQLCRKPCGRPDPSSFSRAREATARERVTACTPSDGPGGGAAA
Experiment: biochemical
Description: Displacement of [3H]DPDPE from human delta opioid receptor expressed in CHO cells
experimental readout: Ki (nM)
State the answer as a number, implicitly in nM.

Task: Entry under review: COc1cccc(C(=O)N[C@@H]2CC[C@@]3(O)[C@H]4Cc5ccc(O)c6c5[C@@]3(CCN4CC3CC3)[C@H]2O6)c1 . Reported Ki?
Output: 3.8

Task: Continue with CC(C)(C)OC(=O)Nc1ccc(C(=O)N[C@@H]2CC[C@@]3(O)[C@H]4Cc5ccc(O)c6c5[C@@]3(CCN4CC3CC3)[C@H]2O6)cc1
Output: 25.3

Task: Continue with O=C(CCc1ccccc1)N[C@@H]1CC[C@@]2(O)[C@H]3Cc4ccc(O)c5c4[C@@]2(CCN3CC2CC2)[C@H]1O5
Output: 12.2

Task: Continue with O=C(C[C@@H]1O[C@H](CO)[C@@H](O)[C@H](O)[C@H]1O)N[C@@H]1CC[C@@]2(O)[C@H]3Cc4ccc(O)c5c4[C@@]2(CCN3CC2CC2)[C@H]1O5
Output: 99

Task: Continue with COc1cccc(C(=O)N[C@H]2CC[C@@]3(O)[C@H]4Cc5ccc(O)c6c5[C@@]3(CCN4CC3CC3)[C@H]2O6)c1
Output: 5.82

Task: Continue with O=C(Cc1cccs1)N[C@H]1CC[C@@]2(O)[C@H]3Cc4ccc(O)c5c4[C@@]2(CCN3CC2CC2)[C@H]1O5
Output: 2.07

Task: Continue with Nc1ccc(C(=O)N[C@@H]2CC[C@@]3(O)[C@H]4Cc5ccc(O)c6c5[C@@]3(CCN4CC3CC3)[C@H]2O6)cc1
Output: 36.5

Task: Continue with O=C(Cc1ccccc1)N[C@@H]1CC[C@@]2(O)[C@H]3Cc4ccc(O)c5c4[C@@]2(CCN3CC2CC2)[C@H]1O5
Output: 28

---

Entries below carry reported Ki on Kappa-type opioid receptor (Homo sapiens, UniProt P41145).
State the answer as a number, implicitly in nM.

Task: Entry under review: COC(=O)c1ccc(C(=O)N[C@@H]2CC[C@@]3(O)[C@H]4Cc5ccc(O)c6c5[C@@]3(CCN4CC3CC3)[C@H]2O6)cc1 . Reported Ki?
Output: 0.73

Task: Continue with CN(C)c1cccc(C(=O)NC2CC[C@@]3(O)[C@H]4Cc5ccc(O)c6c5[C@@]3(CCN4CC3CC3)[C@H]2O6)c1 (some centres undefined)
Output: 1.7

Task: Continue with COc1cccc(C(=O)N[C@H]2CC[C@@]3(O)[C@H]4Cc5ccc(O)c6c5[C@@]3(CCN4CC3CC3)[C@H]2O6)c1
Output: 0.72

Task: Continue with O=C(N[C@H]1CC[C@@]2(O)[C@H]3Cc4ccc(O)c5c4[C@@]2(CCN3CC2CC2)[C@H]1O5)c1ccccc1
Output: 0.78
